// data source = paper PMC6362038

assay: Circular dichroism, R value of secondary structure; assay type: physicochemical; conditions: CD, pH 7.3 HEPES buffer, peptide 24 µM; R ≈ 1 α-helix, R < 0.4 3_10-helix
Numbered stars: 1 amine (or outer) side, 2 acyl side, 3 side chain; on linkers, the order of the positions; unused ones are H or OH. Square brackets hold non-standard residues; d marks the D form. Peptide text beside a SMILES is read from it. * marks the point of attachment. 5FAM = O=C1OC2(c3ccc(O)cc3Oc3cc(O)ccc32)c2ccc(C(=O)*)cc21; X1 = CO[C@H]1CC(N[*:1])(C(=O)[*:2])C[C@@H]1OC; αMeL = CC(C)C[C@](C)(N)C(=O)O; Ac5c = NC1(C(=O)O)CCCC1
experimental-endpoint: R value (θπ → π*/θn → π*)

molecule: N=C(N)NCCC[C@H](NC(=O)CNC(=O)c1ccc2c(c1)C(=O)OC21c2ccc(O)cc2Oc2cc(O)ccc21)C(=O)N[C@@H](CCCNC(=N)N)C(=O)NC1(C(=O)N[C@@H](CCCNC(=N)N)C(=O)N[C@@H](CCCNC(=N)N)C(=O)NC2(C(=O)N[C@@H](CCCNC(=N)N)C(=O)N[C@@H](CCCNC(=N)N)C(=O)NC3(C(N)=O)CCCC3)CCCC2)CCCC1 [Ac5c peptide] (5FAM-GRR[Ac5c]RR[Ac5c]RR[Ac5c]-NH2)
experimental-endpoint: R value (θπ → π*/θn → π*)
result: No significant maxima

molecule: CO[C@H]1CC(NC(=O)[C@H](CCCNC(=N)N)NC(=O)[C@H](CCCNC(=N)N)NC(=O)C2(NC(=O)[C@H](CCCNC(=N)N)NC(=O)[C@H](CCCNC(=N)N)NC(=O)C3(NC(=O)[C@H](CCCNC(=N)N)NC(=O)[C@H](CCCNC(=N)N)NC(=O)CNC(=O)c4ccc5c(c4)C(=O)OC54c5ccc(O)cc5Oc5cc(O)ccc54)C[C@H](OC)[C@@H](OC)C3)C[C@H](OC)[C@@H](OC)C2)(C(N)=O)C[C@@H]1OC [Ac5c^dOM peptide] (5FAM-GRR[X1]RR[X1]RR[X1]-NH2)
experimental-endpoint: R value (θπ → π*/θn → π*)
result: No significant maxima

molecule: CC(C)C[C@H](NC(=O)[C@H](CCCNC(=N)N)NC(=O)[C@H](CCCNC(=N)N)NC(=O)[C@H](CC(C)C)NC(=O)[C@H](CCCNC(=N)N)NC(=O)[C@H](CCCNC(=N)N)NC(=O)[C@H](CC(C)C)NC(=O)[C@H](CCCNC(=N)N)NC(=O)[C@H](CCCNC(=N)N)NC(=O)CNC(=O)c1ccc2c(c1)C(=O)OC21c2ccc(O)cc2Oc2cc(O)ccc21)C(N)=O [Leu peptide] (5FAM-GRRLRRLRRL-NH2)
experimental-endpoint: R value (θπ → π*/θn → π*)
result: No significant maxima

molecule: CC(C)C[C@](C)(NC(=O)[C@H](CCCNC(=N)N)NC(=O)[C@H](CCCNC(=N)N)NC(=O)[C@](C)(CC(C)C)NC(=O)[C@H](CCCNC(=N)N)NC(=O)[C@H](CCCNC(=N)N)NC(=O)[C@](C)(CC(C)C)NC(=O)[C@H](CCCNC(=N)N)NC(=O)[C@H](CCCNC(=N)N)NC(=O)CNC(=O)c1ccc2c(c1)C(=O)OC21c2ccc(O)cc2Oc2cc(O)ccc21)C(N)=O [(αMe)Leu peptide] (5FAM-GRR[αMeL]RR[αMeL]RR[αMeL]-NH2)
experimental-endpoint: R value (θπ → π*/θn → π*)
result: 0.45

###

test: Circular dichroism, R value of secondary structure; type: physicochemical; conditions: CD, 75% TFE/pH 7.3 HEPES buffer, peptide 24 µM
Square brackets hold non-standard residues; d marks the D form. Peptide text beside a SMILES is read from it. * marks the point of attachment. 5FAM = O=C1OC2(c3ccc(O)cc3Oc3cc(O)ccc32)c2ccc(C(=O)*)cc21; αMeL = CC(C)C[C@](C)(N)C(=O)O; Ac5c = NC1(C(=O)O)CCCC1
experimental-endpoint: R value (θπ → π*/θn → π*)
Format: numeric value only, no unit, no commentary.

stdin: Could you tell me which R value (θπ → π*/θn → π*) is on file for CC(C)C[C@](C)(NC(=O)[C@H](CCCNC(=N)N)NC(=O)[C@H](CCCNC(=N)N)NC(=O)[C@](C)(CC(C)C)NC(=O)[C@H](CCCNC(=N)N)NC(=O)[C@H](CCCNC(=N)N)NC(=O)[C@](C)(CC(C)C)NC(=O)[C@H](CCCNC(=N)N)NC(=O)[C@H](CCCNC(=N)N)NC(=O)CNC(=O)c1ccc2c(c1)C(=O)OC21c2ccc(O)cc2Oc2cc(O)ccc21)C(N)=O [(αMe)Leu peptide] (5FAM-GRR[αMeL]RR[αMeL]RR[αMeL]-NH2) ?
stdout: 0.56

stdin: Same question, CC(C)C[C@H](NC(=O)[C@H](CCCNC(=N)N)NC(=O)[C@H](CCCNC(=N)N)NC(=O)[C@H](CC(C)C)NC(=O)[C@H](CCCNC(=N)N)NC(=O)[C@H](CCCNC(=N)N)NC(=O)[C@H](CC(C)C)NC(=O)[C@H](CCCNC(=N)N)NC(=O)[C@H](CCCNC(=N)N)NC(=O)CNC(=O)c1ccc2c(c1)C(=O)OC21c2ccc(O)cc2Oc2cc(O)ccc21)C(N)=O [Leu peptide] (5FAM-GRRLRRLRRL-NH2) this time
stdout: 0.30

stdin: Same question, N=C(N)NCCC[C@H](NC(=O)CNC(=O)c1ccc2c(c1)C(=O)OC21c2ccc(O)cc2Oc2cc(O)ccc21)C(=O)N[C@@H](CCCNC(=N)N)C(=O)NC1(C(=O)N[C@@H](CCCNC(=N)N)C(=O)N[C@@H](CCCNC(=N)N)C(=O)NC2(C(=O)N[C@@H](CCCNC(=N)N)C(=O)N[C@@H](CCCNC(=N)N)C(=O)NC3(C(N)=O)CCCC3)CCCC2)CCCC1 [Ac5c peptide] (5FAM-GRR[Ac5c]RR[Ac5c]RR[Ac5c]-NH2) this time
stdout: 0.52
